Test Details: Tigecycline plasma PK after IV bolus in anesthetized rats
Format: in vivo
Condition: female, Sprague-Dawley, rat, IV bolus 12 mg/kg, PBS (RA853), 30 min
Protocol: Naïve, female Sprague-Dawley Rats (Taconic Farms, Germantown, N.Y.) housed in groups of three were maintained in a climate-controlled room on a 12:12 h light-dark cycle with food and water available ad libitum. Animals weighed approximately 250 g at the time of testing. […] Female rats were maintained in groups of 3 per polycarbonate (or equivalent) shoebox cage with fresh wood chip bedding at 20-22° C. under a 12 hour on/off light:dark cycle. […] Animal weights were determined post-anesthesia induction. […]
Result Type: concentration at 30 min (ng/mL)
Use ng/mL as the unit, but write only the number.

Form field: reported concentration at 30 min of CN(C)c1cc(NC(=O)CNC(C)(C)C)c(O)c2c1C[C@H]1C[C@H]3[C@H](N(C)C)C(O)=C(C(N)=O)C(=O)[C@@]3(O)C(O)=C1C2=O [Tigecycline]
5760

// provenance: patent US9526785B2
